Molecular target: HIF1A
Experiment: HeLa, 100 nM transfected, 24 h, mean of 3
Details: ASO
Bases are written 5' to 3'; sugars and linkages follow in the same order, as letters with counts (s phosphorothioate, o phosphodiester; PS: all linkages phosphorothioate). C may stand for cytosine or 5-methylcytosine; the collection does not tell. l = locked nucleic acid (LNA); d = 2'-deoxy (DNA)
Could you label it 1.0 if measured caspase activation (% of PBS control) is 200 or higher, and 0.0 otherwise?

Sequence string | Group label
GTTACTGCCTTCTTAC (sugars l2 d9 l3 d1 l1, PS) | 1.0
TGGCAAGCATCCTGTA (sugars ldllldddddddlddl, PS) | 1.0
GTTACTGCCTTCT (sugars ldldddddddldl, PS) | 0.0

In: Tell me whether caspase activation (% of PBS control) is at least 200 here: TGGCAAGCATCCTGTA (sugars l5 d6 l3 d1 l1, PS)
Out: 1.0

In: Tell me whether caspase activation (% of PBS control) is at least 200 here: CAAGCATCCTGTA (sugars l1 d1 l1 d9 l1, PS)
Out: 0.0

In: Tell me whether caspase activation (% of PBS control) is at least 200 here: TGGCAAGCATCCTGTA (sugars l2 d1 l1 d10 l2, PS)
Out: 1.0

In: Tell me whether caspase activation (% of PBS control) is at least 200 here: TGGCAAGCATCCTGTA (sugars llddldddddddldll, PS)
Out: 1.0

In: Tell me whether caspase activation (% of PBS control) is at least 200 here: GTTACTGCCTTCTTAC (sugars ldddldddddddldll, PS)
Out: 0.0

In: Tell me whether caspase activation (% of PBS control) is at least 200 here: GCAAGCATCCTGT (sugars l1 d2 l1 d6 l3, PS)
Out: 0.0

In: Tell me whether caspase activation (% of PBS control) is at least 200 here: GTTACTGCCTTCTTAC (sugars l4 d8 l1 d2 l1, PS)
Out: 1.0

In: Tell me whether caspase activation (% of PBS control) is at least 200 here: GTTACTGCCTTCTTAC (sugars l1 d1 l2 d9 l3, PS)
Out: 0.0

----------
As shown below, each of these sequences has a reported caspase activation (% of PBS control) value.
Biological target: HIF1A
Experiment: HeLa, 100 nM transfected, 24 h, mean of 3
Details: ASO
Bases are written 5' to 3'; sugars and linkages follow in the same order, as letters with counts (s phosphorothioate, o phosphodiester; PS: all linkages phosphorothioate). C may stand for cytosine or 5-methylcytosine; the collection does not tell. l = locked nucleic acid (LNA); d = 2'-deoxy (DNA)
Please state the value as a number alone, without comment.

Study these solved cases before continuing.
Sequence string | caspase activation (% of PBS control)
GTTACTGCCTTCTTAC (sugars l1 d10 l1 d1 l3, PS) | 125
TGGCAAGCATCCTGTA (sugars l1 d10 l5, PS) | 480
TGGCAAGCATCCTGTA (sugars l1 d1 l2 d10 l2, PS) | 342
GTTACTGCCTTCTTAC (sugars lllldddddddldldl, PS) | 281
TGGCAAGCATCCTGTA (sugars l3 d8 l1 d3 l1, PS) | 230

We now examine a further sequence.
In: Checklist item: caspase activation (% of PBS control) tested on HIF1A, entry GGCAAGCATCCTG (sugars l4 d6 l3, PS) , value?
Out: 618
